test: qHTS Assay for Identifying Gametocytocidal Compounds (AID 743244);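 further: on the % scale 0 is the no-effect control and ±100 the full control effect; actives lower the fluorescent signal which means gametocytes are killed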; conditions: P. falciparum 3D7 stage III-V gametocytes, alamarBlue, 72 h; stronger effect = lower value
Inconclusive results are not listed.
Outcome measure: max response (%)
One number for each entry, in %.

CNC(=O)c1cc(Oc2ccc(NC(=O)Nc3ccc(Cl)c(C(F)(F)F)c3)c(F)c2)ccn1: 21.4

I'm hoping you can list max response for every compound here, please.
1. O=C(Nc1cccc2c(=O)cc(-c3nn[nH]n3)oc12)c1ccc(OCCCCc2ccccc2)cc1
2. N#CC(c1ccc(Cl)cc1)c1c(Cl)cc(-n2ncc(=O)[nH]c2=O)cc1Cl (configuration not stated)
3. COC(=O)Nc1ccc(-c2nc(N3CCOCC3)c3cnn(C4CCN(C(=O)OC)CC4)c3n2)cc1
4. COc1nc(C)cnc1NS(=O)(=O)c1cccnc1-c1ccc(-c2nnco2)cc1
5. OCCn1cc(-c2ccc3c(c2)CCC3=NO)c(-c2ccncc2)n1
6. CCCCOCCOc1nc(-c2ccc(C(=O)O)c(F)c2)sc1C

Ans.
38.4
-5.57
6.16
18.4
8.08
43.8

I'm hoping you can list max response for every compound here, please.
1. O=C(O)Cc1cccc(OCCCN(Cc2cccc(C(F)(F)F)c2Cl)CC(c2ccccc2)c2ccccc2)c1
2. CN1CCN2c3ncccc3Cc3ccccc3C2C1 (configuration not stated)
3. NC(=O)c1ccc(N(C(N)=O)c2c(F)cccc2F)nc1-c1ccc(F)cc1F
4. CC[C@H](C)C(=O)O[C@H]1C[C@H](O)C=C2C=C[C@H](C)[C@H](CC[C@@H](O)C[C@@H](O)CC(=O)O)[C@H]21
5. CCc1cc(-c2n[nH]c(C)c2-c2ccc3c(c2)OCCO3)c(O)cc1O
6. CC(C)C[C@H](NC(=O)c1cc2ccccc2s1)C(=O)N1CCN(C(=O)[C@H](CO)NS(=O)(=O)c2ccc(Cl)cc2Cl)CC1
7. O=C1C(CCC(O)c2ccc(F)cc2)C(c2ccc(O)cc2)N1c1ccc(F)cc1 (configuration not stated)
8. CC(C)(C)c1[nH]cnc1C=c1[nH]c(=O)c(=Cc2ccccc2)[nH]c1=O

Ans.
1. 0.38
2. 6.21
3. 15.2
4. -1.33
5. -4.02
6. 4.85
7. 8.66
8. -26.5

I'm hoping you can list max response for every compound here, please.
1. CC1=C[C@@H]2[C@@H]([C@@H](O)C[C@@]3(C)[C@H]2C[C@@H](C)[C@]3(O)C(=O)CO)[C@@]2(C)Cc3cnn(-c4ccccc4)c3C=C12
2. O=C(Nc1ccc(OC(F)(F)F)cc1)c1sccc1NCc1ccnc2ccccc12

Ans.
1. -28.3
2. 8.87
